Below: a set of entries, each annotated with reported kon.
# SYSTEM_NAME: T1, human GPC3-His protein (human, UniProt P51654 25-559)
# T1 construct: also called human GPC3 protein; not shown: His tag
# TEST_DETAILS: SPR, antibody captured on Protein A chip, human GPC3-His analyte;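 note: measured at 25 °C flow cell, human GPC3-His injected at five concentrations up to 200 nM, 240 s association, up to 600 s dissociation, double-referenced, fitted to Langmuir 1:1 model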
Record the value in M⁻¹ s⁻¹, omitting the unit from your answer.

Example binders with recorded kon:
BINDER	RECORDED_MEASUREMENT
F1.120.16 (antibody, human IgG1, kappa, V domains shown, Human-murine chimeric antibody) VH: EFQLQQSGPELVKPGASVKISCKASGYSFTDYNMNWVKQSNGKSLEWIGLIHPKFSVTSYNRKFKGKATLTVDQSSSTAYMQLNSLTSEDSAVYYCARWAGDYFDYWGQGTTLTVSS VL: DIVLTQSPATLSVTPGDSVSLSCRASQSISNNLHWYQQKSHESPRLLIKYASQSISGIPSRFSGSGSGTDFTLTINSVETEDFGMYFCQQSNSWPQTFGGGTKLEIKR	78400
F1.2.14 (antibody, human IgG1, kappa, V domains shown, Human-murine chimeric antibody) VH: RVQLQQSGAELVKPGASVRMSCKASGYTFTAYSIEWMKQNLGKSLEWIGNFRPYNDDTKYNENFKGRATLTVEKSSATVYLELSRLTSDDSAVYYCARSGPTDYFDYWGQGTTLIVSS VL: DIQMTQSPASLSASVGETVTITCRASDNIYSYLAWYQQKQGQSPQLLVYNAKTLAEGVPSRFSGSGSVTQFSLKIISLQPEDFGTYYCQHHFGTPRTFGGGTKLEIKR	71600

Which value of kon has been reported for F1.153.1 (antibody, human IgG1, kappa, V domains shown, Human-murine chimeric antibody) VH: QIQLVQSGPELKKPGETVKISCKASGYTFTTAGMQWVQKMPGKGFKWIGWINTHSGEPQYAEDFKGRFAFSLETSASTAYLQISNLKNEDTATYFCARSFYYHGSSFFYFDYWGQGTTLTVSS VL: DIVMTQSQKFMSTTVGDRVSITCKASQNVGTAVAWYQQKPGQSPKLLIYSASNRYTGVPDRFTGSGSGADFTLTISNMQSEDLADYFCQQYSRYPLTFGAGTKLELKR in the records?
67600
